tested on: Cryptococcus neoformans; assay: Antifungal activity against Cryptococcus neoformans clinical isolate after 24 to 48 hrs by standard broth microdilution method; type: functional
Measured MIC, listed per entry for reference.
Measured Quantity: MIC (µg/mL)

Test Smiles | Rel | Measurement
COC(=O)/C(C)=C/c1ccc(Oc2ccccc2N/C(=N/c2ccccc2)NC2CC2)cc1 | > | 50
Clc1cccc(/N=C(\NCCNc2ccnc3cc(Cl)ccc23)Nc2ccc(Oc3cc(Cl)ccc3Cl)cc2)c1 | = | 12.5
Clc1cccc(/N=C(\NCCCNc2ccnc3cc(Cl)ccc23)Nc2ccc(Oc3cc(Cl)ccc3Cl)cc2)c1 | = | 6.25
Clc1ccc(Cl)c(Oc2ccc(N/C(=N/c3ccccc3)NCCNc3ccnc4cc(Cl)ccc34)cc2)c1 | = | 6.25
COc1ccc(Oc2ccccc2N/C(=N/c2cccc(Cl)c2)NCCCNc2ccnc3cc(Cl)ccc23)cc1 | = | 50
COc1ccc(Oc2ccccc2N/C(=N/c2ccccc2)NCCNc2ccnc3cc(Cl)ccc23)cc1 | > | 50
COc1ccc(Oc2ccccc2N/C(=N/c2ccccc2)NCCCNc2ccnc3cc(Cl)ccc23)cc1 | > | 50
COC(=O)/C(C)=C/c1ccc(Oc2ccccc2N/C(=N/c2ccc(Cl)cc2)NCCCCNc2ccnc3cc(Cl)ccc23)cc1 | = | 50
COC(=O)/C(C)=C/c1ccc(Oc2ccccc2N/C(=N/c2ccc(Cl)cc2)NCCNc2ccnc3cc(Cl)ccc23)cc1 | = | 50
Clc1cccc(/N=C(\NCCCCNc2ccnc3cc(Cl)ccc23)Nc2ccccc2Oc2cc(Cl)ccc2Cl)c1 | = | 50
COC(=O)/C(C)=C/c1ccc(Oc2ccc(N/C(=N/c3ccc(Cl)cc3)NCCCNc3ccnc4cc(Cl)ccc34)cc2)cc1 | = | 12.5
Clc1ccc(/N=C(\NCCCNc2ccnc3cc(Cl)ccc23)Nc2ccccc2Oc2cc(Cl)ccc2Cl)cc1 | = | 25
COC(=O)/C(C)=C/c1ccc(Oc2ccc(N/C(=N/c3cccc(Cl)c3)NCCCCNc3ccnc4cc(Cl)ccc34)cc2)cc1 | > | 50
COC(=O)/C(C)=C/c1ccc(Oc2ccccc2N/C(=N/c2cccc(Cl)c2)NCc2ccccc2)cc1 | > | 50
Clc1ccc(Cl)c(Oc2ccccc2N/C(=N/c2ccccc2)NCCNc2ccnc3cc(Cl)ccc23)c1 | > | 50
COC(=O)/C(C)=C/c1ccc(Oc2ccccc2N/C(=N/c2cccc(Cl)c2)NC2CC2)cc1 | > | 50
COc1ccc(Oc2ccc(N/C(=N/c3cccc(Cl)c3)NCCCNc3ccnc4cc(Cl)ccc34)cc2)cc1 | = | 25
Clc1ccc(Cl)c(Oc2ccccc2N/C(=N/c2ccccc2)NCCCCNc2ccnc3cc(Cl)ccc23)c1 | > | 50
COC(=O)/C(C)=C/c1ccc(Oc2ccccc2N/C(=N/c2ccccc2)NCc2ccccc2)cc1 | > | 50
Clc1cccc(/N=C(\NCCCCNc2ccnc3cc(Cl)ccc23)Nc2ccc(Oc3cc(Cl)ccc3Cl)cc2)c1 | = | 12.5
COC(=O)/C(C)=C/c1ccc(Oc2ccccc2N/C(=N/c2ccccc2)NCCCNc2ccnc3cc(Cl)ccc23)cc1 | > | 50
COC(=O)/C(C)=C/c1ccc(Oc2ccc(N/C(=N/c3ccccc3)NCCCNc3ccnc4cc(Cl)ccc34)cc2)cc1 | = | 6.25
COc1ccc(Oc2ccc(N/C(=N/c3ccc(Cl)cc3)NCCCNc3ccnc4cc(Cl)ccc34)cc2)cc1 | = | 50
Clc1cccc(/N=C(\NCCNc2ccnc3cc(Cl)ccc23)Nc2ccccc2Oc2cc(Cl)ccc2Cl)c1 | > | 50
COC(=O)/C(C)=C/c1ccc(Oc2ccccc2N/C(=N/c2cccc(Cl)c2)NCCCNc2ccnc3cc(Cl)ccc23)cc1 | > | 50
Clc1ccc(/N=C(\NCCNc2ccnc3cc(Cl)ccc23)Nc2ccc(Oc3cc(Cl)ccc3Cl)cc2)cc1 | = | 6.25
COC(=O)/C(C)=C/c1ccc(Oc2ccc(N/C(=N/c3ccc(Cl)cc3)NCCNc3ccnc4cc(Cl)ccc34)cc2)cc1 | = | 6.25
COC(=O)/C(C)=C/c1ccc(Oc2ccccc2N/C(=N/c2ccccc2)NCCNc2ccnc3cc(Cl)ccc23)cc1 | > | 50
OC(Cn1cncn1)(Cn1cncn1)c1ccc(F)cc1F | = | 1
C[C@@H]1[C@H](O)[C@@H](C)/C=C/C=C/C=C/C=C/C=C/C=C/C=C/[C@H](O[C@@H]2O[C@H](C)[C@@H](O)[C@H](N)[C@@H]2O)C[C@@H]2O[C@](O)(C[C@@H](O)C[C@@H](O)[C@H](O)CC[C@@H](O)C[C@@H](O)CC(=O)O[C@H]1C)C[C@H](O)[C@H]2C(=O)O | = | 0.06
COc1ccc(Oc2ccccc2N/C(=N/c2cccc(Cl)c2)NCCNc2ccnc3cc(Cl)ccc23)cc1 | = | 12.5
